assayed.target: UniProt:P25021
Sequence (P25021 whole entry): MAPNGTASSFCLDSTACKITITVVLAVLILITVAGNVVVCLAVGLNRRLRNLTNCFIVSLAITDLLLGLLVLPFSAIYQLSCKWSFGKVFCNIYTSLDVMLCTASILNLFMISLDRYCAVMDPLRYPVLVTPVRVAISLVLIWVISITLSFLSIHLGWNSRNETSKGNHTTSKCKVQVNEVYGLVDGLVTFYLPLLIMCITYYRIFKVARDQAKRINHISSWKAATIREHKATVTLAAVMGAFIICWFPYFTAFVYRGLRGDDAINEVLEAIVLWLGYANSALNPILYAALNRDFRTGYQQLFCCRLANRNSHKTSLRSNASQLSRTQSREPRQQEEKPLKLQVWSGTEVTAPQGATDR
pKi: −log10 of the molar value.
experimental.readout: pKi

Recorded pKi for CN(C)CC[C@@H](Oc1cccc2c1OCO2)c1ccc(F)cc1.O=C(O)C(=O)O , please?
< 6.00

---

protocol: MRTlast in CD1 mouse at 15 mg/kg, po measured upto 24 hrs by LC-MS analysis
Type: ADME, organism-based
experimental.context: in vivo
experimental.readout: MRT last at 24 h (h)
Field format: number, assumed h, no unit text.

Endpoint output: MRT last at 24 h of CN(C)CC[C@@H](Oc1cccc2c1OCO2)c1ccc(F)cc1.O=C(O)C(=O)O . Value?
3.1

---

assayed.target: UniProt P43140
Sequence (P43140 whole entry): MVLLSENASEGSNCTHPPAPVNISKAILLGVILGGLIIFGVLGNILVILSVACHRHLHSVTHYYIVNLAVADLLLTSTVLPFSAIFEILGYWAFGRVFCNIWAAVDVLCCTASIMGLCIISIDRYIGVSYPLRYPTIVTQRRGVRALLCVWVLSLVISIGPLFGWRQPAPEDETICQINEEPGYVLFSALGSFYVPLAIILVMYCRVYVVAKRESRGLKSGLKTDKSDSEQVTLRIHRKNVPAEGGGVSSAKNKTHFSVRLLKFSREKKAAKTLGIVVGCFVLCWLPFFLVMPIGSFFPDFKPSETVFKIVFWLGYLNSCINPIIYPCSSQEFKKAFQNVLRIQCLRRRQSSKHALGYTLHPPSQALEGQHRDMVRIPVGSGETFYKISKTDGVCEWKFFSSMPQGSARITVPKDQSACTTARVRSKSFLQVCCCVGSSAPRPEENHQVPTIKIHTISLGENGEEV
Catalogue of pKi readings, one per entry.
In textbook form, pKi equals minus log to base ten of the concentration in mol/L.

What value of pKi has been recorded for this entry: CN(C)CCC(Oc1cccc2c1OCO2)c1ccc2c(c1)OCO2 (configuration not stated)
6.87

Bench note: what pKi did CN(C)CC[C@H](Oc1cccc2c1OCO2)c1ccc(F)cc1 show?
6.01

So what's the measured pKi for this one? CNCCC(Oc1cccc2c1OCO2)c1ccccc1 (configuration not stated)
6.00

Would you mind telling me what pKi value was observed for CN(C)CC[C@@H](Oc1cccc2c1OCO2)c1ccc(F)cc1.O=C(O)C(=O)O ?
5.84

Which pKi is listed for CN(C)CCC(Oc1cccc2c1OCO2)c1cccc(F)c1 (configuration not stated) ?
5.95

Quick one: pKi for CNCC[C@H](Oc1cccc2ccccc12)c1cccs1 [DULOXETINE] ?
5.99

Look up pKi for this molecule: CN(C)CCC(Oc1cccc2c1OCO2)c1ccc(F)cc1 (configuration not stated)
5.91

---

assayed.target: Muscarinic acetylcholine receptor M2 (Homo sapiens)
Sequence (P08172 whole entry): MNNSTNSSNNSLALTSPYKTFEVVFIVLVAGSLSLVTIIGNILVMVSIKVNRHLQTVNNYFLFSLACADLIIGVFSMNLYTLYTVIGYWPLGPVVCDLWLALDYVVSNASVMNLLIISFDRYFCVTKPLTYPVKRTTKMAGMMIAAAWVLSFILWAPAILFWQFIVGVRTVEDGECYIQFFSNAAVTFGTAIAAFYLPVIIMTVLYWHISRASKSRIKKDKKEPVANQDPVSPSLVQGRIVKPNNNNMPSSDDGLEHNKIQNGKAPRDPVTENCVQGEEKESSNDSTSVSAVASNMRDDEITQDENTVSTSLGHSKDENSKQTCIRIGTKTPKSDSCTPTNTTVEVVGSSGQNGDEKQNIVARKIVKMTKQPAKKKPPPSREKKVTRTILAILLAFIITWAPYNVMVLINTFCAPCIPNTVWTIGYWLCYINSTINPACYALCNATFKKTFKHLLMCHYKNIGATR
pKi: −log10 of the molar value.
experimental.readout: pKi

What is its pKi for Muscarinic acetylcholine receptor M2 (Homo sapiens)? Entry: CN(C)CC[C@@H](Oc1cccc2c1OCO2)c1ccc(F)cc1.O=C(O)C(=O)O
< 6.00

---

assayed.target: Transporter (Rattus norvegicus, UniProt Q63380)
Sequence (Q63380 whole entry): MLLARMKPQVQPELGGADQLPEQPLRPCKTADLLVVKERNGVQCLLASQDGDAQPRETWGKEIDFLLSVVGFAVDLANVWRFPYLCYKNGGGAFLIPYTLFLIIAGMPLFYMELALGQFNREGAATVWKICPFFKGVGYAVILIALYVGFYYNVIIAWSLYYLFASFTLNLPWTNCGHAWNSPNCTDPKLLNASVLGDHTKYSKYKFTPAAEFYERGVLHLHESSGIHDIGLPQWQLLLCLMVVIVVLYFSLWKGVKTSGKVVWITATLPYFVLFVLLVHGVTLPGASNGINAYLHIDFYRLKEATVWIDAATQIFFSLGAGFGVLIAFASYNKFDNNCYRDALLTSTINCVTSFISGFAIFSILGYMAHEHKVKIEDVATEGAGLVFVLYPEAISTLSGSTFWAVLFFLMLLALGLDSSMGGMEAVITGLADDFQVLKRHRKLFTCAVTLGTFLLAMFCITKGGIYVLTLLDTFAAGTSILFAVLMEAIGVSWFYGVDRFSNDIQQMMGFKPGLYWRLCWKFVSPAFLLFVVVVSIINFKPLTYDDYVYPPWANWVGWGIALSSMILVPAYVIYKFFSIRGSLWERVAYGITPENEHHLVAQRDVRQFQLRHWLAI
protocol: Binding affinity to rat NET
experimental.readout: Ki (µM)
Provide the reading as a plain figure in µM.

// Ki lookup, key: CCc1nn(CCCN2CCN(c3cccc(Cl)c3)CC2)c(=O)n1CCOc1ccccc1
0.555

---

protocol: Tmax in CD1 mouse at 2 mg/kg, iv measured upto 10 hrs by LC-MS analysis
Assay type: ADME, organism-based
experimental.context: in vivo
experimental.readout: Tmax (min)
Numeric only. Scale: min

Could you tell me which Tmax is on file for CN(C)CC[C@@H](Oc1cccc2c1OCO2)c1ccc(F)cc1.O=C(O)C(=O)O ?
4.8

Where these numbers come from: ChEMBL document CHEMBL6083240
